- subject-of-test: T1, human CD137 (human, UniProt Q07011 24-186)
- T1 construct: Soluble analyte in the Biacore assay; also called 4-1BB; hCD137
- method: SPR Biacore T200, IgG captured on protein A, antigen as analyte, 25 C;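 note: antigens flowed over a CM3 chip for 120 s association, KD derived from ka and kd, running buffer (ACES, NaCl, Tween20, pH 7.4) served as blank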
// kon lookup, one value per entry
Write it as a number; the unit M⁻¹ s⁻¹ goes unstated.

dBBDu_189 / dBBDu_L126 (antibody, human IgG1, V domains shown, Tested as IgG (human IgG1 constant region, kappa light chain); also called dBBDu189/L126) VH: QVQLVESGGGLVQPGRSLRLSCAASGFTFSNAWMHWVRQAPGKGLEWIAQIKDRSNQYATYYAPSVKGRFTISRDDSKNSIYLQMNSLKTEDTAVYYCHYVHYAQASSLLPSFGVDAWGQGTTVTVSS VL: DIVMTQSPLSLPVTPGEPASISCRTSEELLHINRYIFLHWYQQKPGQAPRLLIYKVQNRFSGVPDRFSGSGSGTDFTLKISRVEAEDVGVYYCAQGSAVPFTFGQGTKLEIK :: 1340

Give kon for dBBDu_186 / dBBDu_L106 (antibody, human IgG1, V domains shown, Tested as IgG (human IgG1 constant region, kappa light chain); also called dBBDu186/L106) VH: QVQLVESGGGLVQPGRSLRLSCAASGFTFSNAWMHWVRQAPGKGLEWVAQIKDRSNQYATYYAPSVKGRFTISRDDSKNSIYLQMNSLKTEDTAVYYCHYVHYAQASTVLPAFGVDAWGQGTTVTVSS VL: DIVMTQSPLSLPVTPGEPASISCSTSEELLHINRFIFLHWYQQKPGQAPRLLIYKVANRFMGVPDRFSGSGSGTDFTLKISRVEAEDVGVYYCAQGSQVPFTFGQGTKLEIK 130
